Each record here notes measured inhibition.
- target or system: Tyrosine-protein kinase Yes (Homo sapiens) (UniProt P07947);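 also: values are mean percent inhibition of YES kinase activity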
- Sequence (P07947 2-543 limits assumed): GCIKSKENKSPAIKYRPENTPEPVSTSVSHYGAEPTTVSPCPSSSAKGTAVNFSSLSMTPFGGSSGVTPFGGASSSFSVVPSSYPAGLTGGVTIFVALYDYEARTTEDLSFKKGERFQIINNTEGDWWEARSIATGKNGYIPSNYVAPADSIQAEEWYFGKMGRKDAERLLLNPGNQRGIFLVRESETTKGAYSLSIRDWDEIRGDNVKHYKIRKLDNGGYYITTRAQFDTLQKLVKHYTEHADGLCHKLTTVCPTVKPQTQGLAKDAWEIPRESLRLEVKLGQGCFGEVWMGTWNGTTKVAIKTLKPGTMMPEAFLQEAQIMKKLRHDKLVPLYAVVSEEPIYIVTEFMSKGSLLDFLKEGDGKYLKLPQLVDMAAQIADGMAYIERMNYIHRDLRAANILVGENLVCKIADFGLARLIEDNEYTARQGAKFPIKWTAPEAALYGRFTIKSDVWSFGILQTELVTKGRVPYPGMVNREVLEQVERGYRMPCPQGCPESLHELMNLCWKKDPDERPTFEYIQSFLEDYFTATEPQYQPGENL
- applied conditions: at 1 µM
Kindly provide the numeric value in % only, without the unit symbol.

Completed entries (count: 10):
Ask: So what's the measured inhibition for this one? `NC(=O)c1cccc(Nc2nccc(Nc3cccc4[nH]ncc34)n2)c1`
Reply: 82.5

Ask: So what's the measured inhibition for this one? `COc1ccc(COc2ccc(Cc3cnc(N)nc3N)cc2OC)cc1`
Reply: -3.3

Ask: So what's the measured inhibition for this one? `Nc1ncnc2occ(-c3ccc(NC(=O)Nc4cc(C(F)(F)F)cc(C(F)(F)F)c4)cc3)c12`
Reply: 11.7

Ask: So what's the measured inhibition for this one? `Cn1cc(C=C2C(=O)Nc3cccnc32)c2ccccc21`
Reply: 45.1

Ask: So what's the measured inhibition for this one? `CS(=O)(=O)CCNCc1nc(-c2ccc3ncnc(Nc4ccc(F)c(Cl)c4)c3c2)cs1`
Reply: 9.54

Ask: So what's the measured inhibition for this one? `c1cnn2ncc(-c3ccnc(Nc4ccc5c(c4)OCCO5)n3)c2c1`
Reply: 18.3

Ask: So what's the measured inhibition for this one? `COc1cc(C=NNc2ncnc3c2cnn3-c2ccccc2)ccc1O`
Reply: 64.9

Ask: So what's the measured inhibition for this one? `CCN1CCC(CC(=O)Nc2n[nH]c3nc(-c4cccs4)c(Br)cc23)CC1`
Reply: 2.56

Ask: So what's the measured inhibition for this one? `O=C(Nc1n[nH]c2nc(-c3ccco3)c(Br)cc12)C1CC1`
Reply: 13.8

Ask: So what's the measured inhibition for this one? `CN1CCC(C(=O)Nc2n[nH]c3nnc(-c4ccccc4)cc23)CC1`
Reply: 3.47

Continuing:
Ask: So what's the measured inhibition for this one? `NS(=O)(=O)c1ccc(N/N=C2\C(=O)Nc3ccc(C(=O)NCCc4c[nH]cn4)cc32)cc1`
Reply: 11.8

Ask: So what's the measured inhibition for this one? `COC(=O)Nc1nc2cc(Oc3cccc(NC(=O)Nc4cc(C(F)(F)F)ccc4F)c3)ccc2[nH]1`
Reply: 3.07

Ask: So what's the measured inhibition for this one? `CC(C)=Cc1cccc2c1/C(=N/Nc1ccc(S(N)(=O)=O)cc1)C(=O)N2`
Reply: 18

Ask: So what's the measured inhibition for this one? `Cc1ccc(C(=O)NC2CCCCC2)cc1-c1ccc(C(=O)NCC2CC2)cc1`
Reply: 1.09

Ask: So what's the measured inhibition for this one? `[O-][S+]1CCN(Cc2ccc(-c3ccc4ncnc(Nc5ccc(OCc6ccccc6)c(F)c5)c4c3)o2)CC1`
Reply: 30.5

Ask: So what's the measured inhibition for this one? `CS(=O)(=O)CCN(CC#N)Cc1ccc(-c2ccc3ncnc(Nc4ccc(OCc5cccc(F)c5)c(Cl)c4)c3c2)o1`
Reply: 2.4
